System: HT29 colon
Assay: NCI tumour cell line growth inhibition, 48 h
List of TGI values.

See these solved cases before continuing.
[[record]]
compound = "CC(NC(=O)N(C)C)NC(=O)N(C)C"
result = "> 10 µM"

[[record]]
compound = "CC(C)(C)C(=O)[CH-]C(=O)C(C)(C)C.CC(C)(C)C(=O)[CH-]C(=O)C(C)(C)C.CN(C)c1ccc([O-])cc1.CN(C)c1ccc([O-])cc1.[Ti+4]"
result = "> 100 µM"

[[record]]
compound = "CN1/C(=C\\C=C\\C2=[N+](C)c3ccccc3C2(C)C)C(C)(C)c2ccccc21"
result = "1.49 µM"

[[record]]
compound = "Oc1[nH]c2ccccc2c1N=NC(=S)Nc1ccc(Cl)cc1"
result = "> 100 µM"

[[record]]
compound = "OC(c1cc2ccc(C(F)(F)F)cc2c2cc(C(F)(F)F)ccc12)C1CCCCN1 (configuration not stated)"
result = "3.4 µM"

[[record]]
compound = "CCCCn1c(-c2ccc(C(=O)O/N=C(\\N)c3ccc4c(c3)OCO4)cc2)nc(-c2ccccc2)c1-c1ccccc1"
result = "> 100 µM"


Reported TGI ( Cc1ccc(/C=C2\Cc3c(C)cc(C)cc3C2=O)c(C(=O)O)c1 ) = > 100 µM
